Target Or System: human CB1 receptor (Homo sapiens, UniProt P21554)
Construct: expressed in transfected cells; host or cells: SK-N-MC cells, stably transfected with pcDNA3 CB-1 (human); semi-purified membrane pellet
Sequence (P21554 whole entry): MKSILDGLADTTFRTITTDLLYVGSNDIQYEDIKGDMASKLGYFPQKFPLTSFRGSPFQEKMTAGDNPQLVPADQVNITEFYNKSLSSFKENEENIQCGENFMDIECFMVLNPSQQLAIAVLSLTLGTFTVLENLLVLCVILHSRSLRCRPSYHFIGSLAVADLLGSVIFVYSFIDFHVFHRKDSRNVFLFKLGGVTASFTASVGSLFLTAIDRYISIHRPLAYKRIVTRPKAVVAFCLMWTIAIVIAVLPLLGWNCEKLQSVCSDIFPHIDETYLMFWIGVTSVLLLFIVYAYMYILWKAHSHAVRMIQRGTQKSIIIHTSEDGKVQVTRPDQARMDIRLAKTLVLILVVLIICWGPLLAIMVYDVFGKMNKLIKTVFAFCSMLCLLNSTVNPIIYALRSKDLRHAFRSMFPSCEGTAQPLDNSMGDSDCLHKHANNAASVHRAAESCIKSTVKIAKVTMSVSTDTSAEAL
Protocol Description: Functional cell-based assay, CB1 receptor mediated change in CRE β-gal expression (agonist / inverse agonist)
# EC50 annotations

Compound: COc1ccc(-n2nc(C(=O)NC3C4(C)CCC(C4)C3(C)C)c3c2CCCC3)cc1 (stereo not shown) [compound 9]
EC50 / nM: 2750
//
Compound: CCOC(=O)[C@H]1C2CCC(C2)[C@H]1NC(=O)c1nn(-c2ccc(F)cc2)c2c1CCCC2c1ccccc1 (stereo partly shown) [compound 147]
EC50 / nM: 152
//
Compound: CC1(C)[C@@H]2CC[C@@](C)(C2)[C@H]1NC(=O)c1nn(-c2ccc(Cl)cc2Cl)c2c1CCC/C2=C\c1ccc(Cl)cc1 [compound 292]
EC50 / nM: 9
//
Compound: O=C(NCc1ccccn1)c1nn(-c2ccc(Cl)cc2Cl)c2c1CCCC2=Cc1ccc(Cl)cc1 [compound 319]
EC50 / nM: 50

* * *

Target Or System: human CB2 receptor (Homo sapiens, UniProt P34972)
Sequence (P34972 whole entry): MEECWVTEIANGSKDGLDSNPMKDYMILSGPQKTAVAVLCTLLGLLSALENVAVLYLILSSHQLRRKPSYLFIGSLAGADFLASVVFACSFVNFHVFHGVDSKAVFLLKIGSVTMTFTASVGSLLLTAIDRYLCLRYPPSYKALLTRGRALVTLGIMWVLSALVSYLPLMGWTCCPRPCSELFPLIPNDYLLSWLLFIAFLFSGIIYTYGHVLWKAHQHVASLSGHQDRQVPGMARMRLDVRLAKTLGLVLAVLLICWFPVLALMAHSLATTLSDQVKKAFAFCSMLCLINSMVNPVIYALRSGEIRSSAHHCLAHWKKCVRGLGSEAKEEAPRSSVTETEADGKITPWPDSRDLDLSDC
Protocol Description: Binding assay, cannabinoid CB2 receptor ([3H]-CP-55,940 displacement)
Protocol Conditions: Cannabinoid CB2 Receptor Binding IC50, human CB2 receptor, SK-N-MC cell membranes, radioligand CP-55,940 0.2 nM
pIC50: −log10 of the molar value.

Molecule: CC(NC(=O)c1nn(C2CCCCC2)c2c1CCCC2Cl)C12CC3CC(CC(C3)C1)C2 (stereo not shown)
pIC50: 7.52
//
Molecule: CCOC(=O)C1CCc2c(c(C(=O)NC3C4(C)CCC(C4)C3(C)C)nn2C2CCCCC2)C1 (stereo not shown)
pIC50: 7.81
//
Molecule: CCC1CCCc2c(C(=O)NC3C4(C)CCC(C4)C3(C)C)nn(-c3ccc(F)cc3)c21 (stereo not shown)
pIC50: 8.70
//
Molecule: COC(=O)C(Cc1ccc(O)cc1)NC(=O)c1nn(C2CCCCC2)c2c1CCCC2 (stereo not shown)
pIC50: 8.52
//
Molecule: CCOC(=O)N1CCC(NC(=O)c2nn(Cc3ccccc3)c3c2CCCC3)CC1
pIC50: 6.52
//
Molecule: CC(C)N(C(=O)c1nn(C2CCCCC2)c2c1CCCC2)[C@H](C)C1CCCCC1
pIC50: 7.70
//
Molecule: CS(=O)(=O)NC1CCc2c(c(C(=O)NC3C4CC5CC(C4)CC3C5)nn2C2CCCCC2)C1 (stereo not shown)
pIC50: 6.70
//
Molecule: CCOC(=O)C1CCc2c(C(=O)NC3C4CC5CC(C4)CC3C5)nn(C3CCCCC3)c2C1 (stereo not shown)
pIC50: 7.24
//
Molecule: CCOC(=O)[C@H]1C2CCC(C2)[C@H]1NC(=O)c1nn(CC2CCCCC2)c2c1CCCC2 (stereo partly shown)
pIC50: 7.80
//
Molecule: CC(NC(=O)c1nn(-c2ccc(F)cc2)c2c1CCCC2)C1C2CC3CC(C2)CC1C3 (stereo not shown)
pIC50: 6.84
//
Molecule: CCOC(=O)C1CCCc2c1c(C(=O)NC1C3CC4CC(C3)CC1C4)nn2Cc1ccccc1 (stereo not shown)
pIC50: 8.05
//
Molecule: CC12CCC(C1)C(C)(C)C2NC(=O)Nc1nn(C2CCCCC2)c2c1CCCC2 (stereo not shown)
pIC50: 7.15
//
Molecule: COC(=O)C(Cc1ccc(O)cc1)NC(=O)c1nn(-c2ccc(OC)cc2)c2c1CCCC2 (stereo not shown)
pIC50: 6.54
//
Molecule: CC(C)OC(=O)C1CCc2c(c(C(=O)NC3C4CC5CC(C4)CC3C5)nn2C2CCCCC2)C1 (stereo not shown)
pIC50: 7.52
//
Molecule: CCOC(=O)[C@H]1C2CCC(C2)[C@H]1NC(=O)c1nn(C2CCCCC2)c2c1CCCC2Cl (stereo partly shown)
pIC50: 5.48
//
Molecule: CC12CCC(C1)C(C)(C)[C@@H]2NC(=O)c1nn(Cc2ccccc2)c2c1CCCC2 (stereo partly shown)
pIC50: 10.00
